- MEASUREMENT_NOTES: Plasmodium falciparum growth inhibition, primary screen, strain 3D7, DAPI fluorescence, 100 nL (AID 1184);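 note: parasites grown inside human red blood cells in medium with human serum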
- SETUP_CONDITIONS: P. falciparum 3D7 growth, 3 d, higher = more signal
EXPERIMENTAL_READOUT: z-score
Please state the value as a number alone, without comment.

Briefly, z-score measured for O=C1OCCC=C[C@H]2OC34C=CCN(c5ccc(Cl)cc5)C(=O)[C@H]3N(CCCCCO)C(=O)[C@@H]4C12 (some centres not stated) : 0.684

Briefly, z-score measured for "O=C1C[C@@](C(=O)NCC(F)(F)F)(c2ccc([N+](=O)[O-])cc2)[C@@H](c2ccc(CO)cc2)N1C1CCCCC1" : 0.0369

Briefly, z-score measured for COc1ccc(NN2C(C(O)c3ccccn3)C=CC3C(=O)N(C4CCCCC4)C(=O)C32)cc1 (configuration not stated) : -0.408

Briefly, z-score measured for "CC(C)CN1C(=O)[C@@]2(c3ccc([N+](=O)[O-])cc3)CC(=O)N(CC34CC5CC(CC(C5)C3)C4)[C@@H]2c2ccc(CO)cc21" : -1.14

Briefly, z-score measured for CCCCN1CC=CC23O[C@@H]4/C=C\CCC(C)OC(=O)C4[C@H]2C(=O)N(CCCCCCO)[C@@H]3C1=O (some centres not stated) : 0.11

Briefly, z-score measured for "COc1ccc([Si](C)(C)[C@H]2[C@H](CCO)O[C@@]3(C(=O)N(Cc4cccc(N5CCCCC5=O)c4)c4ccccc43)[C@@H]2C)cc1" : -2.7

Briefly, z-score measured for COc1ccc(C(O)C2C=CC3C(=O)N(c4ccccc4)C(=O)C3N2Nc2ccccc2)cc1OCc1ccccc1 (configuration not stated) : -0.0742

Briefly, z-score measured for "CC(C)C(=C=CC[C@H](O)c1ccc(OCCO)cc1)C[C@H](O)c1cc(Cl)cc(Cl)c1O" : -2.74

Briefly, z-score measured for "C=CCN1C(=O)[C@]2(CC=C)N=C(c3ccc(OCCCO)cc3)O[C@@H]2c2ccccc21" : -1.96

Briefly, z-score measured for CN1C(=O)C2C(C1=O)C1C=C(c3ccc(CO)cc3)C2C(c2cccs2)N1Cc1cccc(OC(F)(F)F)c1 (configuration not stated) : -3.19

Briefly, z-score measured for "Cc1ccc(S[C@]2(C(=O)NC3CC3)CC(=O)N(Cc3ccccc3Cl)[C@@H]2c2ccc(CO)cc2I)cc1" : 0.287

Briefly, z-score measured for "COc1ccccc1CN1C(=O)c2ccccc2[C@](Cc2ccccc2I)(C(=O)NC(C)C)[C@@H]1c1ccc(CO)cc1" : -1.95

Briefly, z-score measured for "COCCOC(=O)N1C(=O)[C@@]2(c3cc(C#CC4=CCCCC4)ccc31)[C@H](C(=O)N1CCN(c3ncccn3)CC1)[C@H]1C(=O)O[C@H](c3ccccc3)[C@H](c3ccccc3)N1[C@@H]2c1ccc(O)cc1" : -1.29

Briefly, z-score measured for CC(C)OC(=O)CC(=O)CC(O)c1cccc(C#N)c1 (configuration not stated) : 0.612

Briefly, z-score measured for "C=CC[C@H](OC(=O)Nc1ccc(OC)cc1)c1ccc(O)c2ccccc12" : -1.36

Briefly, z-score measured for CN1C2C=C(CCCO)C(C3C(=O)N(C(N)=O)C(=O)C32)C1c1cccs1 (configuration not stated) : -0.29

Briefly, z-score measured for "[N-]=[N+]=NCc1ccccc1C[C@@]1(C(N)=O)N=C(c2ccc(OCCCO)cc2)O[C@@H]1c1ccccc1CN=[N+]=[N-]" : -1.91

Briefly, z-score measured for "O=C1O[C@@H](c2ccccc2)[C@@H](c2ccccc2)N2[C@@H](c3ccccc3OCCO)[C@]3(C(=O)Nc4ccc(C#CCCO)cc43)[C@@H](C(=O)N3CCN(c4ncccn4)CC3)[C@H]12" : -2.05

Briefly, z-score measured for "Cc1ccc(S[C@]2(C(=O)O)CC(=O)N(Cc3ccccc3Cl)[C@@H]2c2ccc(CO)cc2)cc1" : -1.34

Briefly, z-score measured for "COCCOC(=O)N1C(=O)[C@@]2(c3cc(C#CC4=CCCCC4)ccc31)[C@H](c1ccccc1OCCO)N1[C@H](c3ccccc3)[C@H](c3ccccc3)OC(=O)[C@H]1[C@@H]2C(=O)N1CCc2cc(OC)c(OC)cc2C1" : -1.68

Briefly, z-score measured for "CC(C)C[C@@H]1NC(=O)[C@H]2C[C@@H](C(=O)NCCCCCC[N+](C)(C)C)[C@@H](c3cccc(OCCO)c3)N2C1=O" : -0.411

Briefly, z-score measured for COc1cc(OC)c(C(O)C2C=CC3C(=O)N(c4ccccc4)C(=O)C3N2Nc2ccc(C#N)cc2)cc1Br (configuration not stated) : -0.365

Briefly, z-score measured for "C=CC[C@@H](OC(=O)Nc1ccc(OC)cc1)c1ccc(OCCO)cc1" : 0.663

Briefly, z-score measured for CN1C(=O)C2C=CC(C(O)C3CCCCC3)N(N3CCCCC3)C2C1=O (configuration not stated) : -0.151

Briefly, z-score measured for "CCCc1cccc(=O)o1" : 0.581

Briefly, z-score measured for CC(C)C(O)C1C=CC2C(=O)N(C)C(=O)C2N1Nc1ccccc1 (configuration not stated) : 0.771

Briefly, z-score measured for "CCCCC(=C=CC[C@@H](O)c1ccc(OCCO)cc1)C[C@@H](O)COCc1ccccc1" : -2.73

Briefly, z-score measured for "C=CCN1Cc2ccccc2C[C@@]2(N=C(c3ccc(OCCCO)cc3)O[C@H]2c2ccccc2)C1=O" : -2.09

Briefly, z-score measured for CCCCN1CC=CC23O[C@@H]4C=CCOC(=O)[C@@H]4[C@H]2C(=O)N(C(C)CO)[C@@H]3C1=O (some centres not stated) : 1

Briefly, z-score measured for "COC(=O)[C@@]1(Cc2ccccc2)[C@H]2c3cc(C(=O)N4CCCC4)n(Cc4cc(F)cc5c4OCOC5)c3C[C@H]2CN1C(=O)c1ccccc1" : -1.65

Briefly, z-score measured for "CN1C(=O)[C@@]2(CCS(=O)(=O)c3ccccc3)N=C(c3ccc(OCCCO)cc3)O[C@H]2c2ccccc21" : -2.07

Briefly, z-score measured for "Cc1ccc(F)cc1S(=O)(=O)N[C@@H]1CCN(Cc2ccc(OC(C)C)cc2)C1" : -0.85

###

- MEASUREMENT_NOTES: small-molecule microarray binders of probe aXIP, primary screen, biochemical, NeuroSMM set, 635/667 nm fluorescence (AID 1119);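 note: probe is the protein aXip251-270 applied at 1 µg/mL to compound-printed slides; binding of probe to printed compounds measured as 667 nm fluorescence plus signal to noise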
- SETUP_CONDITIONS: higher = more signal, called active from +8 up or from −8 down
Would you kindly list composite Z-score for each of these compounds?
Please state the value as a number alone, without comment.

Briefly, composite Z-score measured for "CCOC(=O)C1=CC[C@@H](c2ccccc2)N(S(=O)(=O)c2ccc(C)cc2)C1" : -0.0056

Briefly, composite Z-score measured for "CC(C)(C)OC(=O)CC[C@]1(C(=O)NCCN2CCOCC2)N=C(c2ccc(OCCCO)cc2)O[C@H]1c1ccccc1N=[N+]=[N-]" : 0.489

Briefly, composite Z-score measured for "CN(C)CCCN1C(=O)[C@@]2(c3ccc([N+](=O)[O-])cc3)CC(=O)N(CC34CC5CC(CC(C5)C3)C4)[C@@H]2c2ccc(CO)cc21" : -0.184

Briefly, composite Z-score measured for CC=CC(O)C1C=CC2C(=O)N(c3ccccc3)C(=O)C2N1Nc1ccc([N+](=O)[O-])cc1 (centres undefined) : -0.127
